- Target desc: Vitamin D3 receptor (Rattus norvegicus) (UniProt P13053)
- Sequence (whole entry): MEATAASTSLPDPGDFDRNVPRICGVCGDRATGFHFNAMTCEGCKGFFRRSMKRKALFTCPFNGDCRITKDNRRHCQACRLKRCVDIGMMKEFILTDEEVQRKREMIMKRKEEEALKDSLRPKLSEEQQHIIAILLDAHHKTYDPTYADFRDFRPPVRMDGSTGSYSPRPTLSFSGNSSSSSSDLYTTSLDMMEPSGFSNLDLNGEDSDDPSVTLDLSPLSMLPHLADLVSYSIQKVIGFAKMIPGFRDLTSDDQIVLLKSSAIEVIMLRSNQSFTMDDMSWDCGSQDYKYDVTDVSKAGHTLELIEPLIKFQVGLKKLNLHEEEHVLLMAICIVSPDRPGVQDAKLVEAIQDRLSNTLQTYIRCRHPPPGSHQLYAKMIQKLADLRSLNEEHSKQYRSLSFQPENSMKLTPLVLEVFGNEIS
- Experiment: Vitamin D3 receptor-mediated transcriptional potency in rat osteosarcoma ROS 17/2.8 cells
Reported ED50 values follow for various compounds
Enter your answer as a number in nM; do not include the unit.

Worked cases, ED50 given:
Compound	Unit tag	ED50
C=C1/C(=C/C=C2/CCC[C@]3(C)C([C@H](C)C/C=C(/F)S(=O)(=O)C(C)(C)C)=CC[C@@H]23)CC(O)CC1O (some centres undefined)	nM	4
C=C1C(=CC=C2CCC[C@]3(C)[C@@H]([C@H](C)CCCC(C)(C)O)CC[C@@H]23)C[C@@H](O)C[C@@H]1O	nM	0.35
C=C1/C(=C/C=C2/CCC[C@]3(C)C([C@H](C)CCC(F)(F)S(=O)(=O)C(C)(C)C)=CC[C@@H]23)C[C@@H](O)C[C@@H]1O	nM	0.65

Task: What reported ED50 corresponds to `C=C1/C(=C/C=C2/CCC[C@]3(C)C([C@H](C)CCS(=O)(=O)C(C)(C)C)=CC[C@@H]23)C[C@@H](O)C[C@@H]1O` on Vitamin D3 receptor (Rattus norvegicus) (UniProt P13053)?
Result: 0.8

Sourced from ChEMBL document CHEMBL1132366
